The measured values listed here are drawn from PubChem BioAssay (NCATS).

# test-summary: qHTS of pediatric cancer cell lines to identify multiple opportunities for drug repurposing: Confirmatory screen for TC32 cells (AID 1347118);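 further: cells exposed to compound for 48 h before the read; nearly all actives have a fitted effect of over 65% in size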
# condition-context: TC32 Ewing sarcoma cells viability qHTS; series mostly up to 45.9 µM
Results filed as inconclusive are left out. Calls of active or inactive are those of the source. The call rests on the fitted dose curve; in most records, active means well fitted cell-killing curve with a large enough effect; inconclusive means small, poorly fitted or top-dose-only effect; inactive means no such curve, though single readings can be large or run the other way.
Outcomes: label 1 for active, label 0 for inactive

In [3]: df
Out[3]:
                                   molecule  answer_label
0  CN(C)c1ccc(C(=C2C=CC(=[N+](C)C)C=C2)c2ccc(N(C)C)cc2)cc1       label 1
1  CNS(=O)(=O)CCc1ccc2[nH]cc(C3CCN(C)CC3)c2c1       label 1
2  COc1nc(N)nc2c1ncn2[C@@H]1O[C@H](CO)[C@@H](O)[C@@H]1O       label 1
3  CS(=O)(=O)c1ccc([C@@H](O)[C@@H](CO)NC(=O)C(Cl)Cl)cc1       label 0
4  C[C@@H]1C[C@H]2[C@@H]3CCC4=CC(=O)C=C[C@]4(C)[C@@]3(Cl)[C@@H](O)C[C@]2(C)[C@@]1(OC(=O)c1ccco1)C(=O)CCl       label 1
5  COc1cc(NCc2ccc3nc(N)nc(N)c3c2C)cc(OC)c1OC       label 1
6         CNCC[C@H](Oc1cccc2ccccc12)c1cccs1       label 1
7  CC(=O)[C@H]1CC[C@H]2[C@@H]3CCC4=CC(=O)CC[C@]4(C)[C@H]3CC[C@]12C       label 1
8  Nc1nc(N)c2nc(CNc3ccc(C(=O)NC(CCC(=O)O)C(=O)O)cc3)cnc2n1 (stereo not given)       label 1
9                  O=NN(CCCl)C(=O)NC1CCCCC1       label 0
